- MEASURED ON: T1, Human OX40 protein (hOX40-His) (human, UniProt P43489 29-214)
- T1 construct: Soluble analyte in the SPR assay; also called His-tagged human OX40; not shown: His tag
- T1 sequence: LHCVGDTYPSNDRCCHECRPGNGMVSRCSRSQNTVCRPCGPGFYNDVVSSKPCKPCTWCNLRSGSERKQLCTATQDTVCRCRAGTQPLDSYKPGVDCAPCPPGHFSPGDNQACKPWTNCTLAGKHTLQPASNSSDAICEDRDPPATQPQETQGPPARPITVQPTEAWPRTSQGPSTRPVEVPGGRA
- METHOD NOTES: SPR, Biacore T200, antibody captured on Protein A chip, hOX40-His as analyte, 1:1 Langmuir fit
In this section, each of the binders is paired with its reported kon.
PROPERTY MEASURED: kon (M⁻¹ s⁻¹)

- BINDER: "9A4-mHvKv-IgG1 (antibody, V domains shown, Chimeric: mouse 9A4 variable domains with human IgG1 constant domains; also called 9A4 chimeric antibody) VH: EVQLQQFGAELVKPGASVKISCKASGYTFTDYNMDWVKQSHGKSLEWIGDINPNYDSTSYNQKFKGKATLTVDKSSSTAYMELRSLTSEDTAVYYCARGGYGNYVDYFDYWGQGTTLTVSS VL: NIVMTQSPKSMSMSVGERVTLSCKASENVVTYVSWYQQKPEQSPKLLIYGASNRYTGVPDRFTGSGSATDFTLTISSVQAEDLADYHCGQSYSYPYTFGGGTKLEIK"
  UNIT ABBREV: "M⁻¹ s⁻¹"
  NUMERIC VALUE: 121000
- BINDER: "5D10-mHvKv-IgG1 (antibody, V domains shown, Chimeric: mouse 5D10 variable domains with human IgG1 constant domains; also called 5D10 chimeric antibody) VH: QVQLKESGPGLVAPSQSLSITCTVSGFSLTSYGVHWIRQPPGKGLEWLGVIWAGGNTNYNSALMSRLSISKDNSKSQVFLKMNSLQTDDTAMYNCASYDGYYGWFAYWGQGTLVTVSV VL: DIQMTQTTSSLSASLGDRVTISCRASQDISYYLNWYQQKPDGTVKLLIYYTSRLHSGVPSRFSGSGSGTDYSLTISNLEQEDIATYFCQQGHTLPWTFGGGTKLEIK"
  UNIT ABBREV: "M⁻¹ s⁻¹"
  NUMERIC VALUE: 317000
- BINDER: "9H3-H3K1-IgG1 (antibody, V domains shown, Humanized, with human IgG1 constant domains; also called 9H3 humanized antibody H3K1) VH: QVQLVESGGGVVQPGRSLRISCAVSGFSLTSYGVLWVRQAPGKGLEWLGVIWSGGSTDYNAAFISRLTISRDNSKSTVYFQMNSLRAEDTAVYYCAREEFGYWGQGTLVTVSS VL: DIQMTQSPSSLSASVGDRVTITCRASQDINNYLNWYQQKPGGAVKLLIYYTSRLHTGVPSRFSGSGSGTDFTLTISSLQPEDIATYYCQQTNTLPWTFGGGTKLEVKR"
  UNIT ABBREV: "M⁻¹ s⁻¹"
  NUMERIC VALUE: 244000
- BINDER: "9H3-H3K3-IgG1 (antibody, V domains shown, Humanized, with human IgG1 constant domains; also called 9H3 humanized antibody H3K3) VH: QVQLVESGGGVVQPGRSLRISCAVSGFSLTSYGVLWVRQAPGKGLEWLGVIWSGGSTDYNAAFISRLTISRDNSKSTVYFQMNSLRAEDTAVYYCAREEFGYWGQGTLVTVSS VL: DIQMTQSPSSLSASVGDRVTITCRASQDINNYLNWYQQKPGGAVKLLIYYTSRLHSGVPSRFSGSGSGTDYTLTISSLQPEDIATYFCQQTNTLPWTFGGGTKLEIKR"
  UNIT ABBREV: "M⁻¹ s⁻¹"
  NUMERIC VALUE: 235000
- BINDER: "9H3-H2K3-IgG1 (antibody, V domains shown, Humanized, with human IgG1 constant domains; also called 9H3 humanized antibody H2K3) VH: QVQLVESGGGVVQPGRSLRISCAVSGFSLTSYGVLWVRQAPGKGLEWVAVIWSGGSTDYNAAFISRLTISRDNSKSTVYFQMNSLRAEDTAVYYCAREEFGYWGQGTLVTVSS VL: DIQMTQSPSSLSASVGDRVTITCRASQDINNYLNWYQQKPGGAVKLLIYYTSRLHSGVPSRFSGSGSGTDYTLTISSLQPEDIATYFCQQTNTLPWTFGGGTKLEIKR"
  UNIT ABBREV: "M⁻¹ s⁻¹"
  NUMERIC VALUE: 254000

These data points were gathered from patent US20210206866A1.
